# Target Desc: T1, 6xHis-SUMO-TRAF3 (residues 341-568) (human, UniProt Q13114 341-568)
# T1 construct: also called SUMO-TRAF-C of TRAF3; TRAF3 TRAF-C domain
# T1 sequence (looked up): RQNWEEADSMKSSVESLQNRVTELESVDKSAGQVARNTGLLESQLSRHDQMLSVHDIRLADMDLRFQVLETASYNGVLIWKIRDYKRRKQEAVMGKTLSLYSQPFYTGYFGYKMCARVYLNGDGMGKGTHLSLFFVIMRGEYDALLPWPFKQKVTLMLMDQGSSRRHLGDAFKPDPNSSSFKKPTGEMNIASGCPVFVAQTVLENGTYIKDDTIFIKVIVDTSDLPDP
# Method: fluorescence polarisation
# Assay Context: both partners purified
Where no end group is shown, it is not given here. The star is where a group is joined. 5FAM = O=C1OC2(c3ccc(O)cc3Oc3cc(O)ccc32)c2ccc(C(=O)*)cc21; Ahx = NCCCCCC(=O)O
Measurement Type: Kd
I'd appreciate it if you included the unit after the number.

Any idea what Kd was measured for {5FAM-Ahx}-PIQAS (also called 5-FAM-ORF3a peptide; fluorescently labeled PIQAS peptide) [5-FAM-Ahx-PIQAS peptide (5-aa ORF3a peptide, residues 36-40)] ? 172 µM
